// data source = BindingDB's records for doi:10.1124/jpet.104.068098

Ki values, listed per item
Biological target: Sodium-dependent dopamine transporter (Homo sapiens, UniProt Q01959)
Sequence (Q01959 whole entry): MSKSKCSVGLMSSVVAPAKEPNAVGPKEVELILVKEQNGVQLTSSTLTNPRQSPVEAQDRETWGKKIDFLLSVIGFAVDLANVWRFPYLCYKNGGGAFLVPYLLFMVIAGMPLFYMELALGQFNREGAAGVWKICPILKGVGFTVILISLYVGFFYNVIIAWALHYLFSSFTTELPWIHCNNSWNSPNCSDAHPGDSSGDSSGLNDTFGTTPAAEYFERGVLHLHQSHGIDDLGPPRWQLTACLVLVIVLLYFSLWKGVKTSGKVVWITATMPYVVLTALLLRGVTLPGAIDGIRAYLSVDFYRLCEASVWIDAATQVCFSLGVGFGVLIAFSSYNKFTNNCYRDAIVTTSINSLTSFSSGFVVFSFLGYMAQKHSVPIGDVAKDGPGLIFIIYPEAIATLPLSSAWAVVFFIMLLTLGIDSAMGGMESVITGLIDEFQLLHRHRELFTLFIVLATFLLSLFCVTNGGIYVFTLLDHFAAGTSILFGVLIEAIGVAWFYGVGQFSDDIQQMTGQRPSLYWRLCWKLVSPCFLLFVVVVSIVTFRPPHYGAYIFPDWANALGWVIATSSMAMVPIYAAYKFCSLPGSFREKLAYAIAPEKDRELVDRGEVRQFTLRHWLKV
Numeric answer only, unit µM assumed.

| Compound Structure String | Measured Target | Ki (µM) |
| --- | --- | --- |
| CN1[C@@H](C[C@@H](O)c2ccccc2)CCC[C@H]1CC(=O)c1ccccc1 | Sodium-dependent dopamine transporter (Homo sapiens, UniProt Q01959) | 5.4 |

Consider now this further compound.
[Q] Entry `CN1[C@@H](CCc2ccccc2)CCC[C@H]1CCc1ccccc1` : reported Ki = ?
[A] 0.097

----------
Test system UniProt:P23975, pKi listed for each of the compounds.
Sequence (P23975 whole entry): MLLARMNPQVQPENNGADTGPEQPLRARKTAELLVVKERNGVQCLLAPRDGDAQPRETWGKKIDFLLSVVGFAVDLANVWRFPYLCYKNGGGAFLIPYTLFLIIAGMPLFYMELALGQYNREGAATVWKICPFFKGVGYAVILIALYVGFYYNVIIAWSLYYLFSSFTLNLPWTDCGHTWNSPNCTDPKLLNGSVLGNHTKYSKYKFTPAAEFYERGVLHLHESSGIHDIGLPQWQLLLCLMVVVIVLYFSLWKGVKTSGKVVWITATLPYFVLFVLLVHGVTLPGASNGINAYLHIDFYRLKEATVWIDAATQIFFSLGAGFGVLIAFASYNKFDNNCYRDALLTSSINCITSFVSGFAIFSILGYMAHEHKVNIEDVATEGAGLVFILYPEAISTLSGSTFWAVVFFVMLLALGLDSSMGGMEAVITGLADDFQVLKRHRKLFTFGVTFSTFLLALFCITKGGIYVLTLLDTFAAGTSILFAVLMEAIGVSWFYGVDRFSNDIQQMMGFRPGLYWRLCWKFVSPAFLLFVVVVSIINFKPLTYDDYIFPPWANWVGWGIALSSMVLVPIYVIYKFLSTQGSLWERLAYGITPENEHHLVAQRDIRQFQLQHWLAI
Schema: pKi number; meaning minus log10 of the concentration expressed in molar units.

| Compound Structure String | pKi |
| --- | --- |
| CN1[C@H](/C=C/c2ccccc2)CCC[C@@H]1/C=C/c1ccccc1 | 6.56 |
| CN1[C@@H](CCc2ccccc2)CCC[C@H]1CCc1ccccc1 | 5.74 |

Consider now this further compound.
[Q] Entry `CN1[C@@H](C[C@@H](O)c2ccccc2)CCC[C@H]1CC(=O)c1ccccc1` : reported pKi = ?
[A] 5.73
